Taken from ChEMBL document CHEMBL1121739.

subject_of_test: Acrosin (Homo sapiens) (UniProt P10323)
Sequence (P10323 20-42 limits assumed): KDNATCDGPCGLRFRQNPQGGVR
Sequence (P10323 43-343 limits assumed): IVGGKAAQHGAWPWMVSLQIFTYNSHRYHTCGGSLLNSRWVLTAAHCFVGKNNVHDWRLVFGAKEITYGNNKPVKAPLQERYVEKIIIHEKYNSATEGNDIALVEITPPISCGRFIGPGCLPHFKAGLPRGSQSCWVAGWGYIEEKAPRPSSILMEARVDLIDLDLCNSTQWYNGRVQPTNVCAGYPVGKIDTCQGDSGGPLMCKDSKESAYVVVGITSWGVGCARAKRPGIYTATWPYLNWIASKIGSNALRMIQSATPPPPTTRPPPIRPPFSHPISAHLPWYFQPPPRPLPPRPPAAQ
assay: Compound was tested for inhibition of Human acrosin by ketohexoses
assay_context: concentration not given here
measured_attribute: inhibition

Field: example entries. Status: answers known.
OCC1(O)OCC(O)C(O)C1O (centres undefined) : 58%
O=C(CO)C(O)C(O)C(O)CO (centres undefined) : 18%
O=P(O)(O)OC[C@H]1O[C@](O)(CO)[C@@H](O)[C@@H]1O : 32%

Now for a further molecule.
Which inhibition is listed for O=C(CO)[C@@H](O)[C@H](O)[C@H](O)CO ? 66%

* * *

subject_of_test: Acrosin (Homo sapiens) (UniProt P10323)
assay: Compound was tested for inhibition of Human acrosin by aldopentoses
Parameters: concentration or dose not given beside the values
assay_context: concentration not given here
measured_attribute: inhibition

Field: example entries. Status: answers known.
OC1OC[C@H](O)[C@H](O)[C@H]1O (some centres not stated) : 65%
O[C@@H]1[C@H](O)[C@@H](O)OC[C@H]1O (stereo in doubt; form 1) : 50%

Form field: inhibition recorded for OC1OC[C@H](O)[C@@H](O)[C@@H]1O (some centres not stated) with Acrosin (Homo sapiens) (UniProt P10323) (enter value) 40%

Form field: inhibition recorded for OC[C@H]1O[C@H](O)[C@H](O)[C@@H]1O with Acrosin (Homo sapiens) (UniProt P10323) (enter value) 65%

Form field: inhibition recorded for O=C[C@H](O)[C@@H](O)[C@H](O)CO with Acrosin (Homo sapiens) (UniProt P10323) (enter value) 37%

Form field: inhibition recorded for O[C@@H]1[C@H](O)[C@@H](O)OC[C@H]1O (stereo in doubt; form 2) with Acrosin (Homo sapiens) (UniProt P10323) (enter value) 35%

Form field: inhibition recorded for OC1OC[C@@H](O)[C@@H](O)[C@@H]1O (some centres not stated) with Acrosin (Homo sapiens) (UniProt P10323) (enter value) 50%
